Target: human TAS1R2-WT/TAS1R3-T716M (Homo sapiens, UniProt Q7RTX0+Q8TE23, T716M)
Construct: expressed in transfected cells; host or cells: HEK293T stably expressing Gα16gust44
Sequence (Q7RTX0 21-852 T716M, one chain of several): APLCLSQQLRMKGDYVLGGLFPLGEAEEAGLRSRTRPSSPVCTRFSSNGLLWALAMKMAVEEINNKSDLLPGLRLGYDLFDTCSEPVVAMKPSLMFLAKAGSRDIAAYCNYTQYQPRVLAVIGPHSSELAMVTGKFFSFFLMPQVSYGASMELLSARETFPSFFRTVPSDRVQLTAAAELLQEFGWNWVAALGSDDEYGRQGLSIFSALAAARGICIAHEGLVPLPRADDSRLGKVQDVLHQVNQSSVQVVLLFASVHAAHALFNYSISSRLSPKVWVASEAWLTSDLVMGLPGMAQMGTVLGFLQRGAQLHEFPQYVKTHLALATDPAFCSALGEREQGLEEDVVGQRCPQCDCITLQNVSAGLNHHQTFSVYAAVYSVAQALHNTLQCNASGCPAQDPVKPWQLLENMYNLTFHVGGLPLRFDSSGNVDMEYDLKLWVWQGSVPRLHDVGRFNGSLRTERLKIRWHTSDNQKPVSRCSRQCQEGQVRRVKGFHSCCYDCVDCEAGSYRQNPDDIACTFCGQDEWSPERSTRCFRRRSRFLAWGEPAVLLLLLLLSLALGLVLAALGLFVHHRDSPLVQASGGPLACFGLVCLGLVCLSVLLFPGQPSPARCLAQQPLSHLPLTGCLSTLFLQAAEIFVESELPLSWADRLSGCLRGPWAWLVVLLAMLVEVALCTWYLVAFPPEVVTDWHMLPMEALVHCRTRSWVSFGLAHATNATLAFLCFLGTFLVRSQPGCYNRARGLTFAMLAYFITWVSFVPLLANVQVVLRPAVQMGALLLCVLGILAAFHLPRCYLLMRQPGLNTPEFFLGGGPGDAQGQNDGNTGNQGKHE
Experiment: Calcium mobilisation assay, TAS1R2-WT with TAS1R3 variant T716M
Type: cell-based
property.name: R1 = Variant EC50/WT EC50

| compound | R1 = Variant EC50/WT EC50 |
| --- | --- |
| CC1=CC(=O)NS(=O)(=O)O1 | 1.2 |
| COc1ccc(CCC(=O)c2c(O)cc(O[C@@H]3O[C@H](CO)[C@@H](O)[C@H](O)[C@H]3O[C@@H]3O[C@@H](C)[C@H](O)[C@@H](O)[C@H]3O)cc2O)cc1O [NHDC, neohesperidin dihydrochalcone] | 1.1 |
| COC(=O)[C@H](Cc1ccccc1)NC(=O)[C@H](CC(=O)O)NCCC(C)(C)C | 1.1 |
| C[C@H](CC[C@@H](O[C@@H]1O[C@H](CO[C@@H]2O[C@H](CO)[C@@H](O)[C@H](O)[C@H]2O)[C@@H](O)[C@H](O)[C@H]1O[C@@H]1O[C@H](CO)[C@@H](O)[C@H](O)[C@H]1O)C(C)(C)O)[C@H]1CC[C@@]2(C)[C@@H]3CC=C4[C@@H](CC[C@H](O[C@@H]5O[C@H](CO[C@@H]6O[C@H](CO)[C@@H](O)[C@H](O)[C@H]6O)[C@@H](O)[C@H](O)[C@H]5O)C4(C)C)[C@]3(C)[C@H](O)C[C@]12C [Mogroside V, mogroside V] | 1.2 |

* * *

Target: human TAS1R2-WT/TAS1R3-P780A (Homo sapiens, UniProt Q7RTX0+Q8TE23, P780A)
Construct: expressed in transfected cells; host or cells: HEK293T stably expressing Gα16gust44
Sequence (Q8TE23 20-839): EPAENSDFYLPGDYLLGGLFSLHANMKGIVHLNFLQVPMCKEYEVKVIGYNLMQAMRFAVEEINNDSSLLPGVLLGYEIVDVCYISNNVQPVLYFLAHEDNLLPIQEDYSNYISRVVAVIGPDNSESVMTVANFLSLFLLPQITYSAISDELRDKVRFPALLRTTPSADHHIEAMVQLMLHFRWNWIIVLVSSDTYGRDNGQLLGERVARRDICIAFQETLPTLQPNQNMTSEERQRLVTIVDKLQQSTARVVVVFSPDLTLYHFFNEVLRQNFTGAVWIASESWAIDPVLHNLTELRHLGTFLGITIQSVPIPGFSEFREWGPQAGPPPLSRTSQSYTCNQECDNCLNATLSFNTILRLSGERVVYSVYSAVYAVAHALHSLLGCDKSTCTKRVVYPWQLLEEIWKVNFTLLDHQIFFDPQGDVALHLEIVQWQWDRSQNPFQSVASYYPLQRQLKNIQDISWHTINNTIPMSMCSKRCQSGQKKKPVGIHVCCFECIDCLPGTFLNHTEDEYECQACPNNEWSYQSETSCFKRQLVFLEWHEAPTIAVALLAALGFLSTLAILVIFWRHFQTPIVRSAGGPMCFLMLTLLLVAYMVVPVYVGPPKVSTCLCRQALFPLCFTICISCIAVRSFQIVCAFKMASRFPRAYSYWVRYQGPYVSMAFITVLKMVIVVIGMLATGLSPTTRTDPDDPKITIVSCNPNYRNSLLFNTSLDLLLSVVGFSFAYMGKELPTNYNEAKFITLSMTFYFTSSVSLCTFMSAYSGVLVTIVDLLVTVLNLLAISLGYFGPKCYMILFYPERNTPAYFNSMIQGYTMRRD
Sequence (Q7RTX0 21-852 P780A): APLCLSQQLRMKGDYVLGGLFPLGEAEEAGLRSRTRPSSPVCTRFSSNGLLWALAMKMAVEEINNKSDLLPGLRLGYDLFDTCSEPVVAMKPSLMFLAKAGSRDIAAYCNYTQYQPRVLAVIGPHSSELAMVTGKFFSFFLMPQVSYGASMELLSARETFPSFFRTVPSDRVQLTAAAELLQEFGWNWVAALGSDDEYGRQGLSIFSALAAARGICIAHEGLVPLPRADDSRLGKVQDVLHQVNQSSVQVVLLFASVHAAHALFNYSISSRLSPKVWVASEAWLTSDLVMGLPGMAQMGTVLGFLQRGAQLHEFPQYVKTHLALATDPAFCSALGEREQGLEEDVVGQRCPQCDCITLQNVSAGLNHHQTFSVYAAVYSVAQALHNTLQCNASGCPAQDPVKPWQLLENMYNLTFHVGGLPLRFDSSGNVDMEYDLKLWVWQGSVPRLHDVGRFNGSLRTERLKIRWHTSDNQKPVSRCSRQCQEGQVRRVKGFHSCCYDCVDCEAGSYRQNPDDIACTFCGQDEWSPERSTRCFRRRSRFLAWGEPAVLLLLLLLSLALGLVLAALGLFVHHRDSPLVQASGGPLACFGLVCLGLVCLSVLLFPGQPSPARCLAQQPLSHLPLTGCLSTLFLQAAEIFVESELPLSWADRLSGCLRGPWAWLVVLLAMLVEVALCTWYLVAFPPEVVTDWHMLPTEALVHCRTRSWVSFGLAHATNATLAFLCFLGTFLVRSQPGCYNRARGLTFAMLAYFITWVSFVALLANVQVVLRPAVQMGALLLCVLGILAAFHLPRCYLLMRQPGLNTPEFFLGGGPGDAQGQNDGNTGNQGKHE
Assay: Calcium mobilisation assay, TAS1R2-WT with TAS1R3 variant P780A
Type: cell-based
property.name: R1 = Variant EC50/WT EC50

Worked cases, R1 = Variant EC50/WT EC50 given:
| molecule | target.entity | property.name | readout.value |
| --- | --- | --- | --- |
| CC1=CC(=O)NS(=O)(=O)O1 | human TAS1R2-WT/TAS1R3-P780A (Homo sapiens, UniProt Q7RTX0+Q8TE23, P780A) | R1 = Variant EC50/WT EC50 | 0.7 |
| COc1ccc(CCC(=O)c2c(O)cc(O[C@@H]3O[C@H](CO)[C@@H](O)[C@H](O)[C@H]3O[C@@H]3O[C@@H](C)[C@H](O)[C@@H](O)[C@H]3O)cc2O)cc1O [NHDC, neohesperidin dihydrochalcone] | human TAS1R2-WT/TAS1R3-P780A (Homo sapiens, UniProt Q7RTX0+Q8TE23, P780A) | R1 = Variant EC50/WT EC50 | 0.9 |
| COC(=O)[C@H](Cc1ccccc1)NC(=O)[C@H](CC(=O)O)NCCC(C)(C)C | human TAS1R2-WT/TAS1R3-P780A (Homo sapiens, UniProt Q7RTX0+Q8TE23, P780A) | R1 = Variant EC50/WT EC50 | 0.8 |
| C=C1C[C@@]23CC[C@H]4[C@@](C)(CCC[C@@]4(C)C(=O)O[C@@H]4O[C@H](CO)[C@@H](O)[C@H](O[C@@H]5O[C@H](CO)[C@@H](O)[C@H](O)[C@H]5O)[C@H]4O[C@@H]4O[C@H](CO)[C@@H](O)[C@H](O)[C@H]4O)[C@@H]2CC[C@]1(O[C@@H]1O[C@H](CO)[C@@H](O)[C@H](O[C@@H]2O[C@H](CO)[C@@H](O)[C@H](O)[C@H]2O)[C@H]1O[C@@H]1O[C@H](CO)[C@@H](O)[C@H](O)[C@H]1O)C3 [Rebaudioside M, rebaudioside M] | human TAS1R2-WT/TAS1R3-P780A (Homo sapiens, UniProt Q7RTX0+Q8TE23, P780A) | R1 = Variant EC50/WT EC50 | 0.6 |
| C[C@H](CC[C@@H](O[C@@H]1O[C@H](CO[C@@H]2O[C@H](CO)[C@@H](O)[C@H](O)[C@H]2O)[C@@H](O)[C@H](O)[C@H]1O[C@@H]1O[C@H](CO)[C@@H](O)[C@H](O)[C@H]1O)C(C)(C)O)[C@H]1CC[C@@]2(C)[C@@H]3CC=C4[C@@H](CC[C@H](O[C@@H]5O[C@H](CO[C@@H]6O[C@H](CO)[C@@H](O)[C@H](O)[C@H]6O)[C@@H](O)[C@H](O)[C@H]5O)C4(C)C)[C@]3(C)[C@H](O)C[C@]12C [Mogroside V, mogroside V] | human TAS1R2-WT/TAS1R3-P780A (Homo sapiens, UniProt Q7RTX0+Q8TE23, P780A) | R1 = Variant EC50/WT EC50 | 0.7 |

a: C=C(C)[C@@H]1CC=C(/C=N/O)CC1
b: OC[C@H]1O[C@H](O[C@]2(CCl)O[C@H](CCl)[C@@H](O)[C@@H]2O)[C@H](O)[C@@H](O)[C@H]1Cl
Higher R1 = Variant EC50/WT EC50: a or b ? Bench note: the answer is the label of the chosen record.
b
(b: 1.4, a: 0.9)
